- experimental.system: Inhibitor of nuclear factor kappa-B kinase subunit beta (Homo sapiens) (UniProt O14920)
- Sequence (whole entry): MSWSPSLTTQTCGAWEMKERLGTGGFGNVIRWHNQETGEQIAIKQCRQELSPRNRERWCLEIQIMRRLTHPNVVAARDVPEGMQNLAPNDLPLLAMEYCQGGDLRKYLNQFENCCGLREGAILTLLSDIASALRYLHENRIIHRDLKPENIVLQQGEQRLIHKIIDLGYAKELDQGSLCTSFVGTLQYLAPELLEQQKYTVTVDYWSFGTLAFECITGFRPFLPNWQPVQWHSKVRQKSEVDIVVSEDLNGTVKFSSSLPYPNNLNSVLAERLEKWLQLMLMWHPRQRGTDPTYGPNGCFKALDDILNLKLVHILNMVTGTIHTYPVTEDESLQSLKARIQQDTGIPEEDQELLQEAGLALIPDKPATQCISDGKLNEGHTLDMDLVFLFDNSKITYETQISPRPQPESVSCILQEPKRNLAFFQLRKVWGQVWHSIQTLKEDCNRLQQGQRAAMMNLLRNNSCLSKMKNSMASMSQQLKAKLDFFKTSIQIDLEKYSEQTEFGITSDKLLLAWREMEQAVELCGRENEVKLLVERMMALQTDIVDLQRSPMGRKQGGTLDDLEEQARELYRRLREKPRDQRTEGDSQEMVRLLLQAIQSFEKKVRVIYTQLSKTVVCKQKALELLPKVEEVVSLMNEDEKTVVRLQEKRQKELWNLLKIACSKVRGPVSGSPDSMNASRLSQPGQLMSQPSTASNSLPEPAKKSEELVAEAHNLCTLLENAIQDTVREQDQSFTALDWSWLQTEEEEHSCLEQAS
- assay.explanation: Inhibition of human IKKbeta using GST-IkappaBalpha as substrate at 10 uM
Rule: True for inhibition not less than 40%, False for anything less.

> print(dat)
                          chemical.structure  class
 1  COC(=O)c1ccc(NC(=O)COc2ccc(S(=O)(=O)NC(C)(C)C)cc2)cc1  False
 2  NC(=O)C[C@H](Nc1ncc2c(n1)-c1ccccc1OC2)C(=O)O   True
 3         Cc1sc(N)c2c(=O)oc3c4ccccc4ccc3c12   True
 4  CC[C@H](OC(=O)Nc1ccc(S(=O)(=O)N2CCCCC2)cc1)c1ccco1   True
 5        O=C(c1ccco1)c1coc2c1cc(O)c1ccccc12  False
 6  Cc1ccc(-c2cc3c(c(N)c2C#N)c(=O)oc2ccccc23)o1  False
 7          Cc1c(-c2ccc3c(c2)COC3)sc(N)c1C#N   True
 8     CCOC(=O)c1c(N)oc(=O)c2c1-c1ccccc1C2=O   True
 9  Nc1nc(=O)c2ncn(-c3cccc(-c4ccccc4)c3)c2[nH]1   True
10  CC(C)NC[C@@H](O)COc1cccc2[nH]c3ccccc3c12  False
11    CCCCc1ccc(-n2cnc3c(=O)[nH]c(N)nc32)cc1   True
12  OC[C@@H](O)[C@@H](O)[C@H](O)c1nn(-c2ccccc2)c2nc3ccc(Cl)cc3nc12   True
13  N#Cc1c(C2CCNCC2)cc(-c2c(O)cccc2OCC2CC2)nc1N   True

* * *

# maps each entry to its IC50
- experimental.system: Inhibitor of nuclear factor kappa-B kinase subunit beta (Homo sapiens, UniProt O14920)
- test.context: read-out: pIC50 (converted)
measured.endpoint: IC50 (µM)

> print(dat)
                                    compound                       experimental.system  measured.endpoint  modifier.sign  meas.value
 1           CNc1nc2cc(-c3nccs3)sc2c2c1ncn2C  Inhibitor of nuclear factor kappa-B kinase subunit beta (Homo sapiens, UniProt O14920)               IC50              =       0.229
 2  CNCCNS(=O)(=O)c1ccc(-c2ccnc3[nH]ccc23)cc1  Inhibitor of nuclear factor kappa-B kinase subunit beta (Homo sapiens, UniProt O14920)               IC50              =      0.0324
 3  NC(=O)c1sc(-c2ccccc2)cc1NS(=O)(=O)c1ccc(F)cc1  Inhibitor of nuclear factor kappa-B kinase subunit beta (Homo sapiens, UniProt O14920)               IC50              =        1.58
 4  CN(C)c1ccc(-c2cc(-c3ccccc3O)nc(N)c2C#N)cc1  Inhibitor of nuclear factor kappa-B kinase subunit beta (Homo sapiens, UniProt O14920)               IC50              =          20
 5      CNc1nc2sc(-c3ccc(SC)cc3)nc2c2c1ncn2C  Inhibitor of nuclear factor kappa-B kinase subunit beta (Homo sapiens, UniProt O14920)               IC50              =      0.0282
 6  CNc1nc2[nH]c(-c3cccc(C#N)c3)cc2c2c1ncn2C  Inhibitor of nuclear factor kappa-B kinase subunit beta (Homo sapiens, UniProt O14920)               IC50              =     0.00708
 7       NC(=O)Nc1cc(-c2cccc(Cl)c2)sc1C(N)=O  Inhibitor of nuclear factor kappa-B kinase subunit beta (Homo sapiens, UniProt O14920)               IC50              =      0.0398
 8  Cc1cnc2c(NCCN3CCNCC3)nc3cc(-c4ccccc4)sc3n12  Inhibitor of nuclear factor kappa-B kinase subunit beta (Homo sapiens, UniProt O14920)               IC50              =      0.0398
 9  CN(c1ccc(-c2ccnc3[nH]ccc23)cc1)S(C)(=O)=O  Inhibitor of nuclear factor kappa-B kinase subunit beta (Homo sapiens, UniProt O14920)               IC50              =       0.316
10  NC(=O)Nc1sc(C#Cc2cccc(NC(=O)c3ccccn3)c2)cc1C(N)=O  Inhibitor of nuclear factor kappa-B kinase subunit beta (Homo sapiens, UniProt O14920)               IC50              =         100
11  c1ccc(Oc2ccc(-c3ccnc(Nc4ccc5ncsc5c4)n3)cc2)cc1  Inhibitor of nuclear factor kappa-B kinase subunit beta (Homo sapiens, UniProt O14920)               IC50              =        6.03
12  CNc1nc2sc(-c3ccc(N4CC=CCC4)cc3)nc2c2c1ncn2C  Inhibitor of nuclear factor kappa-B kinase subunit beta (Homo sapiens, UniProt O14920)               IC50              =      0.0331
13  N#Cc1c(-c2ccc([N+](=O)[O-])cc2)cc(-c2ccccc2O)nc1N  Inhibitor of nuclear factor kappa-B kinase subunit beta (Homo sapiens, UniProt O14920)               IC50              =          20
14    CNc1nc2[nH]c(-c3ccc(F)cc3)cc2c2c1ncn2C  Inhibitor of nuclear factor kappa-B kinase subunit beta (Homo sapiens, UniProt O14920)               IC50              =      0.0427
15          NC(=O)Nc1ncc(-c2ccccc2)nc1C(N)=O  Inhibitor of nuclear factor kappa-B kinase subunit beta (Homo sapiens, UniProt O14920)               IC50              =          10
16  N#Cc1c(C2CCCNC2)cc(-c2c(O)cccc2OCC2CCCCC2)nc1N (configuration not stated)  Inhibitor of nuclear factor kappa-B kinase subunit beta (Homo sapiens, UniProt O14920)               IC50              =      0.0263
17  NC(=O)c1sc(-c2ccccc2)cc1NC(=O)NCc1ccccc1  Inhibitor of nuclear factor kappa-B kinase subunit beta (Homo sapiens, UniProt O14920)               IC50              =         100
18  CNc1nc2[nH]c(-c3cccc(CNC(=O)CCOC)c3)cc2c2c1ncn2C  Inhibitor of nuclear factor kappa-B kinase subunit beta (Homo sapiens, UniProt O14920)               IC50              =       0.012
19           NC(=O)Nc1cc(-c2ccccc2)sc1C(N)=O  Inhibitor of nuclear factor kappa-B kinase subunit beta (Homo sapiens, UniProt O14920)               IC50              =      0.0251
20  CCNC(=O)c1ccc(-c2nc3c(nc(NC)c4ncn(C)c43)s2)cc1  Inhibitor of nuclear factor kappa-B kinase subunit beta (Homo sapiens, UniProt O14920)               IC50              =      0.0151
21  N#Cc1c(C2CCCNC2)cc(-c2c(O)cccc2OCc2ccccc2)nc1N (configuration not stated)  Inhibitor of nuclear factor kappa-B kinase subunit beta (Homo sapiens, UniProt O14920)               IC50              =     0.00912
22  CNc1nc2cc(-c3cccc(CCC(=O)O)c3)sc2n2c(C)cnc12  Inhibitor of nuclear factor kappa-B kinase subunit beta (Homo sapiens, UniProt O14920)               IC50              =     0.00912
23  O=S(=O)(c1ccc(-c2ccnc(Nc3cc(F)cc(F)c3)n2)cc1)N1CCNCC1  Inhibitor of nuclear factor kappa-B kinase subunit beta (Homo sapiens, UniProt O14920)               IC50              =       0.117
24    Cc1cnc2c(NCCN)nc3cc(-c4ccc[nH]4)sc3n12  Inhibitor of nuclear factor kappa-B kinase subunit beta (Homo sapiens, UniProt O14920)               IC50              =     0.00251
25            NC(=O)Nc1sc(C#CC2CC2)cc1C(N)=O  Inhibitor of nuclear factor kappa-B kinase subunit beta (Homo sapiens, UniProt O14920)               IC50              =       0.263
26          CNC(=O)c1sc(-c2ccccc2)cc1NC(N)=O  Inhibitor of nuclear factor kappa-B kinase subunit beta (Homo sapiens, UniProt O14920)               IC50              =         100
27  CCS(=O)(=O)N1CCC(COc2cc3cnccc3cc2-c2ccccc2)CC1  Inhibitor of nuclear factor kappa-B kinase subunit beta (Homo sapiens, UniProt O14920)               IC50              =          20
28        CNc1nc2cc(-c3ccccc3)sc2n2c(C)cnc12  Inhibitor of nuclear factor kappa-B kinase subunit beta (Homo sapiens, UniProt O14920)               IC50              =      0.0219
29  O=C1C=CC(c2ccc(-c3ccnc(Nc4ccc5ncsc5c4)n3)cc2)C=C1  Inhibitor of nuclear factor kappa-B kinase subunit beta (Homo sapiens, UniProt O14920)               IC50              =        2.51
30       CNc1nc2sc(-c3ccc(F)cc3)nc2c2c1ncn2C  Inhibitor of nuclear factor kappa-B kinase subunit beta (Homo sapiens, UniProt O14920)               IC50              =      0.0263
31  CC(=O)c1cc2cc(Nc3nccc(-c4ccc(S(=O)(=O)N5CCNCC5)cc4)n3)ccc2o1  Inhibitor of nuclear factor kappa-B kinase subunit beta (Homo sapiens, UniProt O14920)               IC50              =      0.0257
32  CNc1nc2sc(-c3ccc(C(=O)NCc4cccs4)cc3)nc2c2c1ncn2C  Inhibitor of nuclear factor kappa-B kinase subunit beta (Homo sapiens, UniProt O14920)               IC50              =      0.0151
33  CN(CCN)C(=O)c1ccc(Nc2nccc(-c3cc4ccccc4s3)n2)cc1  Inhibitor of nuclear factor kappa-B kinase subunit beta (Homo sapiens, UniProt O14920)               IC50              >         100
34                 NC(=O)c1sc(-c2ccccc2)cc1N  Inhibitor of nuclear factor kappa-B kinase subunit beta (Homo sapiens, UniProt O14920)               IC50              =        3.24
35   CNc1nc2[nH]c(-c3cccc(OC)c3)cc2c2c1ncn2C  Inhibitor of nuclear factor kappa-B kinase subunit beta (Homo sapiens, UniProt O14920)               IC50              =     0.00794
36  C#Cc1c(C2CCNCC2)cc(-c2c(O)cccc2OCC2CC2)nc1N  Inhibitor of nuclear factor kappa-B kinase subunit beta (Homo sapiens, UniProt O14920)               IC50              =     0.00851
37    COc1c(C(N)=O)cc(-c2ccccc2)cc1-c1ccncc1  Inhibitor of nuclear factor kappa-B kinase subunit beta (Homo sapiens, UniProt O14920)               IC50              =        15.8
38  CNc1nc2[nH]c(-c3cccc(CNC(=O)CCC(N)=O)c3)cc2c2c1ncn2C  Inhibitor of nuclear factor kappa-B kinase subunit beta (Homo sapiens, UniProt O14920)               IC50              =      0.0219
39    Cc1cnc2c(NCCN)nc3cc(-c4ncc[nH]4)sc3n12  Inhibitor of nuclear factor kappa-B kinase subunit beta (Homo sapiens, UniProt O14920)               IC50              =       0.447
40  CNC(=O)c1cc(-c2ccc(F)cc2)cc(-c2ccc(S(C)(=O)=O)cc2)c1N  Inhibitor of nuclear factor kappa-B kinase subunit beta (Homo sapiens, UniProt O14920)               IC50              =        15.8
41  CNC(=O)c1cc(-c2ccc(F)cc2)cc(-c2ccc(N3CCCCC3)cc2)c1N  Inhibitor of nuclear factor kappa-B kinase subunit beta (Homo sapiens, UniProt O14920)               IC50              =        15.8
42  CNC(=O)c1ccc(-c2nc3c(nc(NC)c4ncn(C)c43)s2)cc1  Inhibitor of nuclear factor kappa-B kinase subunit beta (Homo sapiens, UniProt O14920)               IC50              =      0.0151
